Measured microsomal CLint at 1 μM, listed per entry for reference.
Assay: Microsomal stability assay, mouse liver microsomes
Assay type: in vitro ADME
Details: mouse, liver microsomes, pH 7.4, mouse liver microsomes, 1 μM compound, 0.5 mg/mL protein, 37° C.; read-out: MLM +30/− NADPH: Clint (μL/min/mg protein)

[
  {
    "COMPOUND": "C[C@](O)(c1ccc(OCc2ocnc2S(C)(=O)=O)cc1)c1cc(Cl)c(OCCCl)c(C#N)c1",
    "OBSERVED": "≥ 48 µL/min/mg"
  }
]

The compound listed as `CC(C)(c1ccc(OCc2ocnc2S(C)(=O)=O)cc1)c1cc(Cl)c(OCCCl)c(Cl)c1` shows microsomal CLint at 1 μM equal to < 12 µL/min/mg

Documented microsomal CLint at 1 μM of CC(O)(c1ccc(OCc2ocnc2S(C)(=O)=O)cc1)c1cc(Cl)c(OCCCl)c(C#N)c1 (centres unmarked) : ≥ 48 µL/min/mg

// `CC(C)(c1ccc(OCc2ocnc2S(C)(=O)=O)cc1)c1cc(Cl)c(OCCCl)c(C#N)c1` : microsomal CLint at 1 μM value = 12 to 48 µL/min/mg

// recorded microsomal CLint at 1 μM for `CC(C)(c1ccc(OCc2ccnc(NS(C)(=O)=O)n2)cc1)c1cc(Cl)c(OCCCl)c(Cl)c1` : < 12 µL/min/mg

* * *

Test: Hepatocyte stability assay, mouse hepatocytes
Type: in vitro ADME
Details: mouse, cryopreserved hepatocytes, 1 μM compound, 0.5 million cells/mL, 37° C., read-out: MH +/− NADPH: Clint (μL/min/million cells)
MEASUREMENT_KIND: hepatocyte CLint at 1 μM

Item: `CC(C)(c1ccc(OCc2cnc(CN)o2)cc1)c1cc(Cl)c(OCCCl)c(C#N)c1` | hepatocyte CLint at 1 μM: ≥ 18 µL/min/1e6 cells

So, CC(C)(c1ccc(OCC2COC(NS(C)(=O)=O)=N2)cc1)c1ccc(OCCCl)c(C#N)c1 (stereo not shown) ? Its hepatocyte CLint at 1 μM was < 4 µL/min/1e6 cells

Value of measured hepatocyte CLint at 1 μM for the entry CC(=O)Nc1nccc(C(C)Oc2ccc(C(C)(C)c3cc(Cl)c(OCCCl)c(C#N)c3)cc2)n1 (stereo not shown) : ≥ 18 µL/min/1e6 cells

# compound `CC(C)(c1ccc(OCc2ccc(S(C)(=O)=O)o2)cc1)c1cc(Cl)c(OCCCl)c(C#N)c1` ; its hepatocyte CLint at 1 μM = 4 to 18 µL/min/1e6 cells

* * *

Assay: Hepatocyte stability assay, mouse hepatocytes
Type: in vitro ADME
Conditions: mouse, cryopreserved hepatocytes, 1 μM compound, 0.5 million cells/mL, 37° C., read-out: MH +/− NADPH: Clint (μL/min/million cells)
Listing of entries alongside the reported hepatocyte CLint at 1 μM.

Looking up `Cc1cc(C(C)(C)c2ccc(OCc3csc(S(C)(=O)=O)n3)cc2)cc(C#N)c1OCCCl` , I found its hepatocyte CLint at 1 μM recorded as ≥ 18 µL/min/1e6 cells

// `Cc1nc(S(C)(=O)=O)oc1COc1ccc(C(C)(C)c2cc(Cl)c(OCCCl)c(C#N)c2)cc1` : hepatocyte CLint at 1 μM value = ≥ 18 µL/min/1e6 cells

hepatocyte CLint at 1 μM recorded for this compound, CC(Oc1ccc(C(C)(C)c2cc(Cl)c(OCCCl)c(C#N)c2)cc1)c1ncc(S(C)(=O)=O)o1 (stereo not drawn) , is ≥ 18 µL/min/1e6 cells

Lab book: hepatocyte CLint at 1 μM of `CC(C)(c1ccc(OCc2ocnc2S(C)(=O)=O)cc1)c1cc(Cl)c(OCCCl)c(C#N)c1` noted as 4 to 18 µL/min/1e6 cells

Looking up `CC(C)(C)C(=O)N(c1ccc(OCc2coc(NS(C)(=O)=O)n2)cc1)c1cc(Cl)c(OCCCl)c(C#N)c1` , I see its hepatocyte CLint at 1 μM listed as 4 to 18 µL/min/1e6 cells

// hepatocyte CLint at 1 μM value for `CC(C)(c1ccc(OCc2ncc(NS(C)(=O)=O)s2)cc1)c1cc(Cl)c(OCCCl)c(C#N)c1` : ≥ 18 µL/min/1e6 cells

// hepatocyte CLint at 1 μM lookup, compound = `Cn1c(COc2ccc(C(C)(C)c3cc(Cl)c(OCCCl)c(C#N)c3)cc2)ccc1S(C)(=O)=O` , result: 4 to 18 µL/min/1e6 cells

Lab note: measured hepatocyte CLint at 1 μM of `CC(C)S(=O)(=O)Nc1nc(COc2ccc(C(C)(C)c3cc(Cl)c(OCCCl)c(C#N)c3)cc2)co1` was < 4 µL/min/1e6 cells

Noted for `CC(C)(c1ccc(OCc2cncc(NS(C)(=O)=O)n2)cc1)c1cc(Cl)c(OCCCl)c(C#N)c1` : its hepatocyte CLint at 1 μM reads 4 to 18 µL/min/1e6 cells

* * *

Listed compounds paired with reported hepatocyte CLint at 1 μM
Assay: Hepatocyte stability assay, mouse hepatocytes
Format: in vitro ADME
Settings: mouse, cryopreserved hepatocytes, 1 μM compound, 0.5 million cells/mL, 37° C., read-out: MH +/− NADPH: Clint (μL/min/million cells)
From the text: The […] of in vitro intrinsic clearance (Clint) for drug candidates in the early discovery stage is common practice in the pharmaceutical industry. […] Metabolic stability of testing compound were be evaluated using human and mouse hepatocytes and can also be use rat, mouse, or other animal hepatocytes to predict intrinsic clearance. […] Cell density was counted by a hemacytometer. […]

Here is how some compounds turned out for hepatocyte CLint at 1 μM.
[
  {
    "COMPOUND": "Cc1oc(S(C)(=O)=O)nc1COc1ccc(C(C)(C)c2cc(Cl)c(OCCCl)c(C#N)c2)cc1",
    "hepatocyte CLint at 1 μM": "≥ 18 µL/min/1e6 cells"
  },
  {
    "COMPOUND": "CC(C)(c1ccc(OCc2cnc(NS(C)(=O)=O)cn2)cc1)c1cc(Cl)c(OCCCl)c(C#N)c1",
    "hepatocyte CLint at 1 μM": "< 4 µL/min/1e6 cells"
  },
  {
    "COMPOUND": "Cc1cc(C(C)(C)c2ccc(OC(C)c3scnc3S(C)(=O)=O)cc2)cc(C#N)c1OCCCl (centres unmarked)",
    "hepatocyte CLint at 1 μM": "4 to 18 µL/min/1e6 cells"
  },
  {
    "COMPOUND": "CC(C)(c1ccc(OCc2csc(NS(C)(=O)=O)n2)cc1)c1cc(Cl)c(OCCCl)c(C#N)c1",
    "hepatocyte CLint at 1 μM": "< 4 µL/min/1e6 cells"
  },
  {
    "COMPOUND": "CC(C)(c1ccc(CCc2ccnc(N)n2)cc1)c1cc(Cl)c(OCCCl)c(C#N)c1",
    "hepatocyte CLint at 1 μM": "4 to 18 µL/min/1e6 cells"
  },
  {
    "COMPOUND": "CC(C)(c1ccc(OCc2nccc(NS(C)(=O)=O)n2)cc1)c1cc(Cl)c(OCCCl)c(C#N)c1",
    "hepatocyte CLint at 1 μM": "< 4 µL/min/1e6 cells"
  },
  {
    "COMPOUND": "CCS(=O)(=O)Nc1nc(COc2ccc(C(C)(C)c3cc(Cl)c(OCCCl)c(C#N)c3)cc2)co1",
    "hepatocyte CLint at 1 μM": "< 4 µL/min/1e6 cells"
  }
]

Now let's try a different one.
The measured hepatocyte CLint at 1 μM associated with `CC(C)(c1ccc(OCc2csc(S(C)(=O)=O)n2)cc1)c1cc(Cl)c(OCCCl)c(C#N)c1` reads ≥ 18 µL/min/1e6 cells

* * *

Target: androgen receptor (AR) (Homo sapiens, UniProt P10275, T878A)
Construct: LNCaP cells were transiently transfected with the PSA (6.1 kb)-luciferase reporter for 24 h; endogenous in cells; host or cells: LNCaP
Sequence (P10275 1-920 T878A): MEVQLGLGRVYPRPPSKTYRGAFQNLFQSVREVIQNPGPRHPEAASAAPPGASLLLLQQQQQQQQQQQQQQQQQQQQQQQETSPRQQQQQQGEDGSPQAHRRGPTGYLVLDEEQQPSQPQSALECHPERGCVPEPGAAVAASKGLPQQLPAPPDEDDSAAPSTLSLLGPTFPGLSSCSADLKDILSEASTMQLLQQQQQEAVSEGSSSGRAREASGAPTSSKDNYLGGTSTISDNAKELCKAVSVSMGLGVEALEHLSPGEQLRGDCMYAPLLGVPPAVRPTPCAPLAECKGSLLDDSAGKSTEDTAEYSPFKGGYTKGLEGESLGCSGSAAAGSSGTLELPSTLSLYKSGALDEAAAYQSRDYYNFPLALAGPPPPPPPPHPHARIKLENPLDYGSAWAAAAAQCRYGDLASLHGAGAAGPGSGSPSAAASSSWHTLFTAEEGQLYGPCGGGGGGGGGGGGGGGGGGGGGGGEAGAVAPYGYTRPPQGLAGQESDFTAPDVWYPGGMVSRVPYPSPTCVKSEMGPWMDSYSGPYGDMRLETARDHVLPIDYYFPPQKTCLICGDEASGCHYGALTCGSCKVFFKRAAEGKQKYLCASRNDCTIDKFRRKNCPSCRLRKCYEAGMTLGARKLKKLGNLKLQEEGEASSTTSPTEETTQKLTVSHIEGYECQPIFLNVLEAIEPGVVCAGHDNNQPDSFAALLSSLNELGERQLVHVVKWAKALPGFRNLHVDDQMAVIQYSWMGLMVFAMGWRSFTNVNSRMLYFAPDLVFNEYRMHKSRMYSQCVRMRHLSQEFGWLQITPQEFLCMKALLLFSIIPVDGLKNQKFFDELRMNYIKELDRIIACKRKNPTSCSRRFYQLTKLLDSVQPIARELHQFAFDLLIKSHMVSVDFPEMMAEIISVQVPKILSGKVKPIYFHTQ
Experiment: Androgen-induced PSA (6.1 kb)-luciferase reporter assay in LNCaP cells
Type: cell-based
Conditions: LNCaP cells transfected with PSA (6.1 kb)-luciferase reporter, R1881 1 nM, 24 h; read-out: PSA-Luc IC50 Range
Experimental: The PSA (6.1 kb)-luciferase reporter contains functional AREs (androgen response elements) to which AR binds in response to androgen to induce luciferase activity. Cells were lysed using Passive Lysis Buffer (Promega) and then collected into V-bottom 96-well tissue culture plates. Lysates were centrifuged at 4° C. for 5 minutes at 3000 rpm. To measure luminescence of LNCaP cell lysates the Firefly Luciferase Assay System (Promega) was employed, according to manufacturer's protocol. […]
pIC50: −log10 of the molar value.
MEASUREMENT_KIND: pIC50

Completed entries (count: 3):
[
  {
    "COMPOUND": "CC(=O)Nc1cc(COc2ccc(C(C)(C)c3cc(Cl)c(OCCCCl)c(Cl)c3)cc2)on1 [Compound A23]",
    "OBSERVED": "< 5.70"
  },
  {
    "COMPOUND": "CC(C)(c1ccc(OC2CCc3cnc(NS(C)(=O)=O)nc32)cc1)c1cc(Cl)c(OCCCl)c(C#N)c1 (centres unmarked) [Compound A203]",
    "OBSERVED": "5.70 to 6.30"
  },
  {
    "COMPOUND": "CC(C)(c1ccc(OCc2coc(NS(C)(=O)=O)n2)cc1)c1cc(Cl)c(OCCCl)c(Cl)c1 [Compound A38]",
    "OBSERVED": "5.70 to 6.30"
  }
]

The compound listed as CC(C)(c1ccc(OCc2coc(NS(C)(=O)=O)n2)cc1)c1cc(Cl)c(OCCCl)c(C#N)c1 [Compound A130] shows pIC50 equal to 5.70 to 6.30

Record CC(C)(c1ccc(OCc2ncncc2NS(C)(=O)=O)cc1)c1cc(Cl)c(OCCCl)c(Cl)c1 [Compound A41] . Reported pIC50: < 5.70

The reported value for CC(C)(c1ccc(OCc2ncc(S(C)(=O)=O)[nH]2)cc1)c1cc(Cl)c(OCCCl)c(C#N)c1 [Compound A94] in terms of pIC50 is 5.70 to 6.30

// field: pIC50; key: CC(Oc1ccc(C(C)(C)c2cc(Cl)c(OCCCl)c(C#N)c2)cc1)c1ocnc1S(C)(=O)=O (centres unmarked) [Compound A87] ; value = 5.70 to 6.30

Looking up CC(C)(c1ccc(OCc2nnc(O)o2)cc1)c1cc(Cl)c(OCCCCl)c(Cl)c1 [Compound A18] , I see its pIC50 listed as < 5.70

For this compound ( Cc1nc(NS(C)(=O)=O)nc(COc2ccc(C(C)(C)c3cc(Cl)c(OCCCl)c(C#N)c3)cc2)c1C [Compound A123] ), measured pIC50 is > 6.30

The recorded pIC50 for CC(C)(c1ccc(OCc2ccnc(NS(C)(=O)=O)n2)cc1)c1cc(F)c(OCCCl)c(C#N)c1 [Compound A205] is 5.70 to 6.30

CC(C)(c1ccc(OCc2ccc(S(C)(=O)=O)o2)cc1)c1cc(Cl)c(OCCCl)c(C#N)c1 [Compound A168] has a reported pIC50 of > 6.30
